assay: yeast display, Sf9 membrane polyspecificity reagent, FACS + sequencing; frameworks hold sequencing errors
readout: polyreactivity (PSR sort gate)

QVQLVESGGGLVQAGGSLRLSCAASGRIFTYYTMGWYRQAPAKYREFVAAISWSGTSTYYADSVKGRFTISRDNAKNTFYLQMNSLKPEDTAVYYFAARDPPRAGYDYWGQGTHVTVSS; high polyreactivity
QVQLVESGGGLVQAGGSLLLSCAASGSTFYKYAMGWYRQAPGKERELVARNSRGGGSTYYADSVKGRFTISRDNAKNTVYLQMNSLKPEDTAVYYCAAGVRGQNEGYYWGQGTQVTVSS; high polyreactivity
QVQHVESGGGLVQAGGSLRLSCAASGTTFYSYAMGWYRQAPGKERELVAAISWRTSSTYYADSVKGRFTISRDNAKNTVYLQMNSLKPEDTAVYYCAAETWLGSWRQVGMDYWGQGTQVTVSS; high polyreactivity

---

assay: yeast display, Sf9 membrane polyspecificity reagent, FACS + sequencing; frameworks hold sequencing errors
readout: polyreactivity (PSR sort gate)

QVQHVDSGGGLVQAAGSLRLSCAASGRTFGVYAMGWYRQAPGKERELVATITSVDRTNYADSVKGRFTISRENAKNTVYLLMNSLKPDDTAVYYCADVGRGPRYFYWGQGTQVTVSS; high polyreactivity
QVQLVESGGGLVQAGGSLRLSCAASGLIFKRYGMGWYRQAPGKERELVAAISRSGGNTYYADSVKGRFTISRDNAKNTVYLQMNSLKPEDTAVYYCAATATYTYSDVDYWGQGTQVTVSS; high polyreactivity
QVQLVESGGGLVQAGGTLRISCAASGRIFTIYAMGWYRQAPGKERELVATISSNVGSTYYADSVKGRFTISRDNAKNTVYLQMNSLKPEDTAVYYCAATRRAGFTTAKFDYWGQGTQVTVSS; high polyreactivity
QVQLVETGGGLVQAGGSLRLSCAASGYNLNSNAMGWYRQAPGKEREFVASITESGGTTYYADSVKGRFTISRDNAKNTVYLQMNSLKPEDTAVYYCAADLVDWWYSSDLYDYWGQGTQVTVSS; high polyreactivity
QVQLVESGGVLVQAGGSLRLSCAASGRTFAYNTMGWYRQAPGKEREVVAAITWSGGGTYYADSVKGRFTISRDNAKKTVYLQLNSLKPEDTAVYYCAVEYATPRARFRYYYWGQGTKVTVSS; high polyreactivity
QVQLVESGGGLVQAGGSLRLSCAASGSIFPVYAMGWYRQAPGKQRELVAAITTAGRTYYADSVKGRFTISRDNAKNTVYLQMNSLKPEDTAVYYCNARSRKGLTVDGGYWGQGTQVTVSS; high polyreactivity
QVKLVESGGGLVQAGGSLRLSCAASGFTFALYSMGWYRQAPGKERELVAAITRRGGSTYYADSVKGRFTISRDNAKNTVYVQMNSLKPEDTAVYYCAKRERAIKVSRYDSHDYWGQGTQVTVSS; high polyreactivity
QYQLVESGGGLVQAGRTLRLSWAASGRIFVRYVMGCYRQAPVKERELVAAISSSGGSTYYADSVKGRFTISRDNAKNWVYLQIYSLKPEDTAVYYCATDFMDKYILPYDYWGQGTQVTVSS; low polyreactivity
KVQLVESGGGLVQAGGSLRLSCAASGSTFQYYAMGWYRQAPGTERELVAAITSGGSTNYADSVKGRFTISRDNAKNTVYLQMNSLKPEDTAVYYCNADSSGWFPFDYWGQGTQVTVSS; low polyreactivity
QVQLVESGGGLVQAGRSLRLSCAASGSIFAWYGMGWYRQAPGKERELFAAISTDGSTNYADSVKGRFTISRDNAKNSVYLQMISLKREDTAVYYCAKKSSLYYPERFDYWGQGTQGTVSS; low polyreactivity

What polyreactivity (PSR sort gate) value was documented for this sequence, `QVQLEESGRGLVQAGGSLRLSCAASVSTCCENAMGWYRQAPGKERELVAAISWGGGSKYYADSVKGRFTISRDNAMNTVYLQMNSLKQEDTAVYYCNADVFDDYGYFESDYWGQGTQVTVSS` ?
low polyreactivity

---

assay: yeast display, Sf9 membrane polyspecificity reagent, FACS + sequencing; frameworks hold sequencing errors
readout: polyreactivity (PSR sort gate)

QVQLVESGGGLVQAGGSLRLSCAASGRTFGVNAMGWYRQAPGKERELVAAISRSGGSTYYADSVKGRFTISRDNAKNTVYLQMNSLKPEDTAVYYCAKSYFGNHLTGFGYWGQGTQVTVSS; low polyreactivity
QVQLVESGGGLVQAGGSLRLSCAASGFTFGIYAMGWYRQAPGKERELVADISSGGSTYYADSVKGRFTISRDNAKNTVYLQMNSLKPEDTAVYYCARDSWWYHHYDYWGQGTQVTVSS; low polyreactivity
QVQLVESGGGLVQAGGSLRLSCAASGRTFALYAMGWYRHAPGKERELVASISWRGGSTYYADSVKGRFTISRDNAKNTVYLQMNSLKPEDTAVYYCAADTWSYGPLNYRLEYWGQGTQVTVSS; low polyreactivity
QVQLVESGGGLVQAGGSLRVSCAASGSTFDPNAMGWYRQATGKERELVADIDSGGSTYYADSVKGRFTISRDNAKNTVYLQMNSMKPEDTAVYYCATKQPTWVPRVIISYTKFDYWGQGTQVTVSS; low polyreactivity
QVQLVESGGGLVQAGGSLRLSCAASGSTFRLYTMGWYRPAPVKERELVAAITSGGSTNYADSVKGRFTISRDNAKNTVYLQMNSLKPEDTSVYYCAIAKRFPSFDYWGQGTQVTVSS; low polyreactivity
QVQLVESGGGLVQAGGSLRLSCAASGFTFGYYAMGWYRQAPGKERELVAAITGSGGSTYYADSVKGRFTISRDNAKNTVYLQMNSLKPEDTAVYYCAADKAVYRGSPKNRSPYYYWGQGTQVTVSS; high polyreactivity
QVQLVESGGGLVQAGGSLRLSCAASGSIFRRYDMGWYRQAPGTERELVAAISSSGGSTYYADSVKGRFTISRDNAKNTVYLQMNILKPEDTAVYYCNTASNRYPGWRAEFDYWGQGTQVTVSS; low polyreactivity
QVQLVESGGGLVQAGGSLRLSCAASGRIFDIYAMGWYRQAPGKERELVAAITSGGSTYYADSVKGRFTNSRDNAKNTVYFQMNILKPEYTAVYYCAADSVLLKDTGYDYWGKGTQVTVSS; low polyreactivity
QVQLVESGGGLVQAGGSLGLSCAASGRTFAKYAMGWYRQAPGKERELVAAITRGDTTNYADSVKGRFTISRDNAKNTGYLQMHRLKPEDTAVYYCAATPDPPHTYEYWGQVTQVTVSS; low polyreactivity
QVQLVESGGGLVQAGGSLRLSCAASGSTISRNAMGWYRQAPGKERELVAAITSKGDSTYYADSVKGRFTISRDNAKNTVYLQMNSLKPEDTAVYYCAAVRRGYKYDYWGQGTQVTVSS; low polyreactivity

What polyreactivity (PSR sort gate) value was documented for this sequence, `QVQLVESGGGLVQAGGSLRLSCAASGSTFYWYAMGWYRHAPGKEREFVADIDWSGGSTYYADSVKGRFTISLDNAKNTVYLQMNSLKPEDTAVYYCAAVGAAGQDNYWGQGTQVTVSS` ?
high polyreactivity

---

assay: yeast display, Sf9 membrane polyspecificity reagent, FACS + sequencing; frameworks hold sequencing errors
readout: polyreactivity (PSR sort gate)

Answered examples (10):
QFQLVESGGGLVQAGGSLRLSCAASGFIFTNVMGWYRQSPGKERELVAAISGRGTSTYYADSVKGRFTISRDNAKNTVYLQMNSLKPEDTAVYYCAAYFTSRLDYWGQGTQVTVSS; high polyreactivity
QVQLVESGGGLVQAGVSLRLTCAASGRIFRRYAMGWYRQAPGKEMEFVAAISYGGGSTYYADSVKGRFTISRDNAKNTVYLQMNSLKPEDTAVYYWNADEVVWGYNYWGQGTQVNVSS; low polyreactivity
QVQLVESVGGLVQAGGSLRLSCAASGRIFYFYAMGWYRQAPGKERELVASISSGSSTNYADSVKGRFTISRDNAKNTVYLQMNSLKPEDTAVYYCAAQPWHGSRPRSYYWGQGTQVTVSS; high polyreactivity
QVQLVESGGGLVQAGGSLRLSCAASGLIFLYYAMGWYRQAPGKERELVAAISRRGGSTYYADSVKGRFTISRDNAKNTVYLQMNSLKPEDTAVYYCAAKYESYPGGIWTYYYWGQGTQVTVSS; high polyreactivity
QVQLVESGGGVGQAGGSLRLSCAASGLSCVDYAMGWYRQAPGKERELVAAISTTGGSTYYADSVKGRFTISRDNAKNTVYLQMKSLKPEDTAVYYCNARFVHHSWGTNYYWGQGTQVTVSS; high polyreactivity
QVQLVESGGGLVQAGGSLRLSCAASGFIFYPYAMGWYRQAPGKERELVAVITSGGRTYYADSVKGRFTISRDNAKNTVYLQMNSLKPEDTAVYYCAARYGRIQWKANWPEYGYWGQGTQVTVSS; low polyreactivity
QVQLVESGGGLVQAGGSLRLSCAASGRIFYQNAMGWSRPAPGKERELVAGITRGGSTYYADSVKGRFTISRDNAKNTVYLQMNSLKPEDTAVYYCAVAFWRTKWYDYWGQGTQVTVSS; low polyreactivity
QVHLVESGGGLVQAGGSLRLSCAASGFTFRYYGMGRYRQAPGKERELVAAISRGGSTNYADSVKGRFTISRDNAKNTVYLQMTSLKPEDTAVYYFAKAGLTYRALRYYWGQGTQVTVSS; high polyreactivity
QVQLVESGGGLVQAGGSLRLSSAASGRTFDAYAMGWNRQAPGKERELVAAISGRGGSTTYADSVKGRFTISRDNAKNTVYLQMNSLKPEDTAVYYCAARYPPRFGVVRGYSRSGYWGQGTQVTVSS; high polyreactivity
QVQLVESGGGLVQAGGSIRLSCAASGRTFSAYAMGWYRQEPGKVRELVARITSVDSTNYADSVKGRFTISRDNAKNTVYLQMNSLKPEDTAVYYSNATFGYPLVDYDDYWGQGTQVTVSS; low polyreactivity

Now let's try a different one.
What polyreactivity (PSR sort gate) value was documented for this sequence, `QVHLVESGGGLVQAGGSLRLSCAASGFIFSLYAMGWYRQAPGKERELVAAISKRGGSTNYADSVKGRFTISRDNAKNTVYLQMNSLKPEDTAVYYWAKARPGFLYDHWGQGTQVTVSS` ?
high polyreactivity
